Every entry's value here was drawn from patent US20200017496A1.

- System: Escherichia coli (ECO) isolates
- test: MIC of compounds alone and combined with antibacterials, broth microdilution (CLSI)
- Format: cell-based
- study_conditions: ECO 190457; AF1 @ 4 μg/mL
readout_kind: MIC ATB in combination

record_smiles	system_under_test	result
COCC1=C(C(=O)O)N2C(=O)[C@@H](NC(=O)/C(=N\OC)c3csc(N)n3)[C@H]2SC1	Escherichia coli (ECO) isolates	<=0.25 μg/mL
CC(C)(O/N=C(\C(=O)N[C@@H]1C(=O)N2C(C(=O)[O-])=C(C[n+]3ccccc3)CS[C@H]12)c1csc(N)n1)C(=O)O	Escherichia coli (ECO) isolates	<=0.25 μg/mL
C=CC1=C(C(=O)O)N2C(=O)[C@@H](NC(=O)/C(=N\O)c3csc(N)n3)[C@H]2SC1	Escherichia coli (ECO) isolates	<=0.25 μg/mL
